Attribute: inhibition
# Tgt: Serine/threonine-protein kinase D2 (Homo sapiens) (UniProt Q9BZL6)
# Sequence (Q9BZL6 whole entry): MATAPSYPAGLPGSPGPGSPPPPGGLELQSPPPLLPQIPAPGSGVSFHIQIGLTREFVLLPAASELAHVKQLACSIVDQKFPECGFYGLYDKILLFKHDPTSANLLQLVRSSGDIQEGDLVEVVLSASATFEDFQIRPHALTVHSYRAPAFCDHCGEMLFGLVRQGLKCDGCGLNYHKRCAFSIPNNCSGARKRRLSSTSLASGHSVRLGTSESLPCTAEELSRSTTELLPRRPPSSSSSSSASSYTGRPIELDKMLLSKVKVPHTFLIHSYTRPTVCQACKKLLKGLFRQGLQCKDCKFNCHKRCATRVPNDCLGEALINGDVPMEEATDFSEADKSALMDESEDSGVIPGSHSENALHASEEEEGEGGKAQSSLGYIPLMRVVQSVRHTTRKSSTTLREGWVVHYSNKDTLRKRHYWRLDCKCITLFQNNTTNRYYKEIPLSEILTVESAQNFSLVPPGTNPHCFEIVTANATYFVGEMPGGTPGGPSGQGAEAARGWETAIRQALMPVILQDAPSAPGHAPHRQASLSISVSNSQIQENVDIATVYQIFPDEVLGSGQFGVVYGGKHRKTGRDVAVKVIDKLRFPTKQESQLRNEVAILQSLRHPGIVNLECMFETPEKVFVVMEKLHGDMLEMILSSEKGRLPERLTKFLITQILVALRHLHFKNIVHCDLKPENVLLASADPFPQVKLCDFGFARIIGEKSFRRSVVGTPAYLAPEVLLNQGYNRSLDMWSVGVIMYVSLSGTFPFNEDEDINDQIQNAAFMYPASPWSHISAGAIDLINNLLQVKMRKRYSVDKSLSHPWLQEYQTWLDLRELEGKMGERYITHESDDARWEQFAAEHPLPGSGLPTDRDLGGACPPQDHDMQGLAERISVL
# Measurement parameters: at 1 µM
Measured property: inhibition

* c1ccc(Nc2ncc(-c3ccccc3)o2)cc1 | 8.41%
* COc1cc(/C=N/Nc2ncnc3c2cnn3C(C)C)ccc1O | 1.41%
* NC(=O)c1sc(-n2cnc3ccccc32)cc1OCc1ccccc1Br | 6.86%
* COC(=O)c1cncc(/C=C/c2c(C)cc(O)cc2C)c1 | 4%
* Cc1ccc(O)cc1Nc1ccnc2ccc(S(C)(=O)=O)cc12 | 33.2%
* CN(C)C(=O)O[C@H]1CN[C@H](C#Cc2cc3ncnc(Nc4ccc(OCc5cccc(F)c5)c(Cl)c4)c3s2)C1 | 1.92%

====

# Tgt: Serine/threonine-protein kinase 4 (Homo sapiens)
# Measurement parameters: at 1 µM
Measured property: inhibition (%)

* COc1cc(Nc2nccc(-c3cnn4ncccc34)n2)cc(OC)c1 | 35.6
* Nc1nccc(-c2c(-c3ccc(F)cc3)ncn2CCCN2CCOCC2)n1 | 5.25
* ON=C1CCc2cc(-c3nc(C4CCNCC4)[nH]c3-c3ccncc3)ccc21 | 3.87
* COc1cccc(-n2nc(C)c3c(N/N=C(\C)c4ccncc4)ncnc32)c1 | 1.63
* CN(C)C(=O)O[C@H]1CN[C@H](C#Cc2cc3ncnc(Nc4ccc(OCc5cccc(F)c5)c(Cl)c4)c3s2)C1 | 4.55
* CN(C)c1cc2c(Nc3ccc4c(cnn4Cc4ccccc4)c3)ncnc2cn1 | 1.68
* CCn1c(-c2nonc2N)nc2c(C#CC(C)(C)O)nc(OCCNC)cc21 | 6.97
* c1ccc(Cc2nc3ccc(Nc4ncnc5ccccc45)cc3[nH]2)cc1 | 8.56
* O=C1Nc2ccccc2/C1=C/Nc1ccc2[nH]c(=O)[nH]c2c1 | 67.2
* Nc1nccc(-c2c(-c3ccc(F)cc3)nn3cc(C(F)(F)F)ccc23)n1 | -0.05
* O=C1Nc2ccc(-c3cccnc3)cc2C1=Cc1cc(Br)c(O)c(Br)c1 | 39.6
* CCn1c(-c2nonc2N)nc2ccc(F)cc21 | 5.97
* O=C(Nc1ccc(Oc2ccc3[nH]c(NC(=O)c4ccco4)nc3c2)cc1)Nc1cc(C(F)(F)F)ccc1F | 0.17

====

# Tgt: Tyrosine-protein kinase ITK/TSK (Homo sapiens)
# Measurement parameters: at 0.1 µM
Measured inhibition, listed per entry.
Measured property: inhibition (%)

* COC(=O)Nc1nc2cc(Oc3ccc(NC(=O)Nc4cccc(Br)c4)cc3)ccc2[nH]1 | 1.01
* CN(C)c1cc2c(Nc3ccc4c(cnn4Cc4ccccc4)c3)ncnc2cn1 | 1.37
* COc1cc(Nc2nccc(-c3cnn4ncccc34)n2)cc(OC)c1 | 0.74
* COc1cccc(-n2ncc3c(N/N=C/c4ccc(S(C)(=O)=O)cc4)ncnc32)c1 | -2.33
* Cc1ccc2c(-c3ccnc(Nc4cccc(C(F)(F)F)c4)n3)c(-c3ccccc3)nn2n1 | 1.33
* c1ccc(Cc2nc3ccc(Nc4ncnc5ccccc45)cc3[nH]2)cc1 | 0.82
* COc1cc2ncn(-c3cc(OCc4ccccc4S(C)(=O)=O)c(C#N)s3)c2cc1OC | 2.84
* Nc1nccc(C#Cc2cncnc2Nc2ccc(OCc3cccc(F)c3)c(Cl)c2)n1 | 1.89
* Cc1ccc2c(-c3ccnc(Nc4ccc5c(c4)OCCO5)n3)c(-c3ccc(C(F)(F)F)cc3)nn2n1 | -1.23
* Oc1cccc(-c2nc(-c3ccccc3)[nH]c2-c2ccncc2)c1 | 1.78
* COc1ccc2ncnc(Nc3ccc(OCc4ccccc4)cc3)c2c1 | 0.5
* CN(c1ccc(NC(=O)Nc2ccc(OC(F)(F)F)cc2)cc1)c1ccnc(Nc2cccc(S(N)(=O)=O)c2)n1 | 10.6
* NS(=O)(=O)c1cccc(Nc2cc(-c3ccc(F)cc3)n[nH]2)c1 | 1.67
* Cc1cc(-c2ccccn2)cc(C)c1/C=C/c1cncc(-c2nn[nH]n2)c1 | 0.82
* Cc1cc(Cl)cc2c1NC(=O)C2=NNc1ccc(S(N)(=O)=O)cc1 | 1.14
* CCn1c(-c2nonc2N)nc2ccc(F)cc21 | 2.15
* COc1cccc(-n2nc(C)c3c(N/N=C(\C)c4ccncc4)ncnc32)c1 | 0.43
* NS(=O)(=O)c1ccc(N/N=C2\C(=O)Nc3ccc(Cl)cc32)cc1 | 0.97
* O=C1Nc2ccc(-c3cccnc3)cc2C1=Cc1cc(Br)c(O)c(Br)c1 | 1.58
* Nc1nccc(-c2c(-c3ccc(F)cc3)ncn2CCCN2CCOCC2)n1 | 1.35
* C[C@@H](Oc1cc(-n2cnc3ccc(OC[C@@H](O)CO)cc32)sc1C(N)=O)c1ccccc1Cl | 0.28
* ON=C1CCc2cc(-c3nc(C4CCNCC4)[nH]c3-c3ccncc3)ccc21 | 0.74
* NS(=O)(=O)c1cccc(-c2cc3ccncc3cc2OCc2ccccc2)c1 | 1.77
* N#Cc1cccc(Nc2nccc(-c3cnn4ncccc34)n2)c1 | 2.91
* Cc1nc(-c2ccccc2)n2nc(NCCCN3CCOCC3)ncc12 | 0.99
* CCS(=O)(=O)c1ccc(OC)c(Nc2nccc(N(C)c3ccc4c(C)n[nH]c4c3)n2)c1 | 0.31
* CCn1c(-c2nonc2N)nc2c(C#CC(C)(C)O)nc(OCCNC)cc21 | 0.63
* CN(C)CCCn1c(-c2nonc2N)nc2cnccc21 | 1.43
* CN(C)C(=O)O[C@H]1CN[C@H](C#Cc2cc3ncnc(Nc4ccc(OCc5cccc(F)c5)c(Cl)c4)c3s2)C1 | 1.49
* OCc1ccc(-c2nc(-c3ccccn3)c(-c3ccc4c(c3)OCO4)[nH]2)cc1 | 1.59
* COc1cc(/C=N/Nc2ncnc3c2cnn3C(C)C)ccc1O | 1.18
* Nc1ccc(C#Cc2cncnc2Nc2ccc(OCc3cccc(F)c3)c(Cl)c2)cc1 | 0.59
* FC(F)(F)c1ccc(-c2nn3ncccc3c2-c2ccnc(Nc3ccc4c(c3)OCCO4)n2)cc1 | 5.77
* COc1ccc(-c2nn3ncccc3c2-c2ccnc(Nc3cccc(C(F)(F)F)c3)n2)cc1 | 0.45
* O=C1Nc2ccccc2/C1=C/Nc1ccc2[nH]c(=O)[nH]c2c1 | 1.78
